- EXPERIMENT_DESCRIPTION: Measurement of Sodium Ion Channel Blocking Effects: In order to measure the sodium ion channel blocking effect, an IonFlux16 Auto patch clamp system (Fluxion, Inc.) and a plate for exclusive use were used. The cells were distributed in an extracellular solution (4 mM KCl, 138 mM NaCl, 1 mM MgCl2, 1.8 mM CaCl2, 5.6 mM glucose, 10 mM HEPES, pH 7.45), and then dispensed in the specified region of the plate, and each of the prepared compound samples was diluted at various concentrations, and then dispensed in the specified region of the plate.
- Format: cell-based
Consider the following compounds and their measured log10 of IC50 readings.
Please interpret these as log10 of IC50 where IC50 is in nM.

- COMPOUND: "C[C@H]1CN(c2cc(Cl)ccc2Nc2cc(F)c(S(=O)(=O)Nc3cscn3)cc2Cl)CCN1"
  REPORTED: 3.18

Prompt line: Data request, read-out log10 of IC50, for CNCCN(C)c1cc(F)ccc1Nc1cc(F)c(S(=O)(=O)Nc2ncc(C)s2)cc1Cl
Response line: 1.70

Prompt line: Data request, read-out log10 of IC50, for CN[C@@H]1CCCN(c2cc(F)ccc2Nc2ccc(S(=O)(=O)Nc3cscn3)c(F)c2)C1
Response line: 2.55

Prompt line: Data request, read-out log10 of IC50, for CN(C)CCN(C)c1cc(F)ccc1Nc1cc(F)c(S(=O)(=O)Nc2nccs2)cc1Cl
Response line: 2.38

Prompt line: Data request, read-out log10 of IC50, for CNC1CCN(c2cc(C(F)(F)F)ccc2Nc2cc(F)c(S(=O)(=O)Nc3cscn3)cc2Cl)C1 (stereo not given)
Response line: 1.32

###

- EXPERIMENT_DESCRIPTION: Measurement of Sodium Ion Channel Blocking Effects: In order to measure the sodium ion channel blocking effect, an IonFlux16 Auto patch clamp system (Fluxion, Inc.) and a plate for exclusive use were used. The cells were distributed in an extracellular solution (4 mM KCl, 138 mM NaCl, 1 mM MgCl2, 1.8 mM CaCl2, 5.6 mM glucose, 10 mM HEPES, pH 7.45), and then dispensed in the specified region of the plate, and each of the prepared compound samples was diluted at various concentrations, and then dispensed in the specified region of the plate.
- Format: cell-based
Consider the following molecules and their measured pIC50 readings.
// scale note: pIC50 = -log10(conc_M); give the bare number

Prompt line: Data request, read-out pIC50, for O=S(=O)(Nc1cscn1)c1cc(Cl)c(Nc2ccc(Cl)cc2N2CCC(N3CCCC3)C2)cc1F (stereo not drawn)
Response line: 6.90

Prompt line: Data request, read-out pIC50, for CNC1CCN(c2cc(F)ccc2Nc2cc(F)c(S(=O)(=O)Nc3ncns3)cc2Cl)C1 (stereo not drawn)
Response line: 5.85

###

- EXPERIMENT_DESCRIPTION: Measurement of Sodium Ion Channel Blocking Effects: In order to measure the sodium ion channel blocking effect, an IonFlux16 Auto patch clamp system (Fluxion, Inc.) and a plate for exclusive use were used. The cells were distributed in an extracellular solution (4 mM KCl, 138 mM NaCl, 1 mM MgCl2, 1.8 mM CaCl2, 5.6 mM glucose, 10 mM HEPES, pH 7.45), and then dispensed in the specified region of the plate, and each of the prepared compound samples was diluted at various concentrations, and then dispensed in the specified region of the plate.
- Format: cell-based
pIC50: −log10 of the molar value.
Threshold check on pIC50: at or above 7 gives Condition met, strictly below gives Condition not met.

These recorded examples may help you get a feel for the data.
- COMPOUND: "CN(C)CCN(C)c1cc(F)ccc1Nc1ccc(S(=O)(=O)Nc2cscn2)cc1Cl"
  LABEL_CLASS: "Condition not met"
- COMPOUND: "CN(C)CCN(C)c1ccccc1Nc1cc(F)c(S(=O)(=O)Nc2ncc(Cl)s2)cc1Cl"
  LABEL_CLASS: "Condition not met"
- COMPOUND: "CNCCN(C)c1ccccc1Nc1cc(F)c(S(=O)(=O)Nc2nccs2)cc1Cl"
  LABEL_CLASS: "Condition met"
- COMPOUND: "CNC1CCN(c2ccccc2Nc2ccc(S(=O)(=O)Nc3cscn3)cc2Cl)C1 (centres undefined)"
  LABEL_CLASS: "Condition met"
- COMPOUND: "CN1CCN(c2cc(F)ccc2Nc2ccc(S(=O)(=O)Nc3cscn3)cc2Cl)CC1"
  LABEL_CLASS: "Condition not met"

Prompt line: Does the reported pIC50 for CNCCN(C)c1cc(OC)ccc1Nc1cc(F)c(S(=O)(=O)Nc2ncc(F)s2)cc1Cl fall at or above the 7 mark?
Response line: Condition not met

Prompt line: Does the reported pIC50 for CN[C@@H]1CCCN(c2cc(OC)ccc2Nc2ccc(S(=O)(=O)Nc3cscn3)c(F)c2)C1 fall at or above the 7 mark?
Response line: Condition not met

###

- EXPERIMENT_DESCRIPTION: Measurement of Sodium Ion Channel Blocking Effects: In order to measure the sodium ion channel blocking effect, an IonFlux16 Auto patch clamp system (Fluxion, Inc.) and a plate for exclusive use were used. The cells were distributed in an extracellular solution (4 mM KCl, 138 mM NaCl, 1 mM MgCl2, 1.8 mM CaCl2, 5.6 mM glucose, 10 mM HEPES, pH 7.45), and then dispensed in the specified region of the plate, and each of the prepared compound samples was diluted at various concentrations, and then dispensed in the specified region of the plate.
- Assay type: cell-based
pIC50: −log10 of the molar value.
MEASUREMENT_LABEL: pIC50

- SMILES: "O=S(=O)(Nc1cscn1)c1cc(F)c(Nc2ccc(F)cc2N2CC[C@@H](F)C2)c(F)c1"
  MEASUREMENT_LABEL: "pIC50"
  REPORTED: "< 6.00"

Prompt line: Data request, read-out pIC50, for CN[C@@H]1CCN(c2cc(F)ccc2Nc2c(F)cc(S(=O)(=O)Nc3cscn3)cc2F)C1
Response line: < 6.00

Prompt line: Data request, read-out pIC50, for O=S(=O)(Nc1cscn1)c1ccc(Nc2ccc(F)cc2N2CC[C@@H](F)C2)cc1
Response line: < 6.00

###

- EXPERIMENT_DESCRIPTION: Measurement of Sodium Ion Channel Blocking Effects: In order to measure the sodium ion channel blocking effect, an IonFlux16 Auto patch clamp system (Fluxion, Inc.) and a plate for exclusive use were used. The cells were distributed in an extracellular solution (4 mM KCl, 138 mM NaCl, 1 mM MgCl2, 1.8 mM CaCl2, 5.6 mM glucose, 10 mM HEPES, pH 7.45), and then dispensed in the specified region of the plate, and each of the prepared compound samples was diluted at various concentrations, and then dispensed in the specified region of the plate.
- Format: cell-based
Consider the following compounds and their measured IC50 readings.
Kindly provide the numeric value in nM only, without the unit symbol.

- COMPOUND: "CNCCN(C)c1cc(F)ccc1Nc1cc(F)c(S(=O)(=O)Nc2ncc(Cl)s2)cc1Cl"
  MEASUREMENT_LABEL: "IC50"
  REPORTED: 8

Prompt line: Data request, read-out IC50, for CNC1CCN(c2ccccc2Nc2ccc(S(=O)(=O)Nc3cscn3)c(F)c2)C1 (stereo not drawn)
Response line: 53

Prompt line: Data request, read-out IC50, for CNC1CCN(c2cc(F)ccc2Nc2c(F)cc(S(=O)(=O)Nc3cscn3)cc2F)C1 (stereo not drawn)
Response line: 412

Prompt line: Data request, read-out IC50, for CNCCN(C)c1cc(F)ccc1Nc1cc(F)c(S(=O)(=O)Nc2ncc(F)s2)cc1Cl
Response line: 9

Prompt line: Data request, read-out IC50, for COC1CCN(c2cc(C(F)(F)F)ccc2Nc2cc(F)c(S(=O)(=O)Nc3cscn3)cc2Cl)C1 (stereo not drawn)
Response line: 140

Prompt line: Data request, read-out IC50, for CNC1CCN(c2cc(OC(F)(F)F)ccc2Nc2cc(F)c(S(=O)(=O)Nc3cscn3)cc2Cl)C1 (stereo not drawn)
Response line: 53

Prompt line: Data request, read-out IC50, for CNCCN(C)c1cc(Cl)ccc1Nc1cc(F)c(S(=O)(=O)Nc2cscn2)cc1Cl
Response line: 50

Prompt line: Data request, read-out IC50, for COC1CCN(c2cc(F)ccc2Nc2cc(F)c(S(=O)(=O)Nc3cscn3)cc2Cl)C1 (stereo not drawn)
Response line: 277

Prompt line: Data request, read-out IC50, for CNCCN(C)c1ccccc1Nc1cc(F)c(S(=O)(=O)Nc2ccc(F)cn2)cc1Cl
Response line: 70

Prompt line: Data request, read-out IC50, for CN(C)[C@H]1CCN(c2cc(C(F)(F)F)ccc2Nc2ccc(S(=O)(=O)Nc3cscn3)cc2Cl)C1
Response line: 103

Prompt line: Data request, read-out IC50, for CN1CCN(c2cc(OC(F)F)ccc2Nc2cc(F)c(S(=O)(=O)Nc3cscn3)cc2Cl)CC1
Response line: 160

Prompt line: Data request, read-out IC50, for CNCCN(C)c1cc(C#N)ccc1Nc1cc(F)c(S(=O)(=O)Nc2ccc(F)cn2)cc1Cl
Response line: 230

Prompt line: Data request, read-out IC50, for CNCCN(C)c1cc(F)ccc1Nc1cc(F)c(S(=O)(=O)Nc2ncco2)cc1Cl
Response line: 360

Prompt line: Data request, read-out IC50, for CNCCN(C)c1cc(F)ccc1Nc1cc(F)c(S(=O)(=O)Nc2ccccn2)cc1Cl
Response line: 110

Prompt line: Data request, read-out IC50, for CNC1CCN(c2c(F)cccc2Nc2cc(F)c(S(=O)(=O)Nc3cscn3)cc2Cl)C1 (stereo not drawn)
Response line: 86

Prompt line: Data request, read-out IC50, for CNCCN(C)c1cc(Cl)ccc1Nc1cc(F)c(S(=O)(=O)Nc2ncc(F)cn2)cc1Cl
Response line: 120

Prompt line: Data request, read-out IC50, for CNCCN(C)c1cc(C#N)ccc1Nc1cc(F)c(S(=O)(=O)Nc2ccccn2)cc1Cl
Response line: 460

Prompt line: Data request, read-out IC50, for CNC1CCN(c2cc(OC(F)(F)F)ccc2Nc2ccc(S(=O)(=O)Nc3cscn3)c(F)c2)C1 (stereo not drawn)
Response line: 108

Prompt line: Data request, read-out IC50, for CN[C@@H]1CCCN(c2cc(Cl)ccc2Nc2cc(F)c(S(=O)(=O)Nc3cscn3)cc2Cl)C1
Response line: 44

Prompt line: Data request, read-out IC50, for CN[C@@H]1CCCN(c2cc(F)ccc2Nc2ccc(S(=O)(=O)Nc3cscn3)cc2Cl)C1
Response line: 49

Prompt line: Data request, read-out IC50, for CNCCN(C)c1ccccc1Nc1cc(F)c(S(=O)(=O)Nc2cc(C)on2)cc1Cl
Response line: 20

Prompt line: Data request, read-out IC50, for CNCCN(C)c1ccccc1Nc1cc(F)c(S(=O)(=O)Nc2ccccn2)cc1Cl
Response line: 120
